Test: RPL19A-GFP modulators, yeast TOR pathway, confirmation, cell-based, S. cerevisiae, flow cytometry, cherry picks, mother/daughter gates (AID 2270)
Settings: S. cerevisiae RPL19A-GFP strain, 3 h, at 10 µM, hits give low values, 100 = same GFP as DMSO wells
Answer each item with its documented GFP response vs DMSO.
Numbers only, in %.

Guide cases for GFP response vs DMSO, answers given:
O=C(NNC(=S)NC(=O)c1cn(-c2ccccc2)nc1-c1ccccc1)c1ccncc1 ... 98
COc1ccc(-c2noc(CCCc3ccccc3)n2)cc1OC ... 101
Fc1ccccc1-c1nc(NCCCN2CCOCC2)c2ccccc2n1 ... 94.4
CCSC1=NCCN1S(=O)(=O)c1ccc(F)cc1 ... 98.8
O=C(c1c(F)cccc1F)N1CCN(c2ccccc2F)CC1 ... 99.4
COC(=O)c1ccc(C(=O)NC(=S)Nc2ccc3nc(SC)sc3c2)cc1 ... 97.8

# batch: return GFP response vs DMSO for each of the 5 compounds below
1. O=C(NCCN1CCOCC1)c1ccc(CS(=O)(=O)Cc2ccccc2F)o1
2. O=C(O)c1ccc(SCc2cnc(Cl)s2)cc1
3. CCOC(=O)c1ccc(NC(=O)CCc2nc(-c3ccccc3Cl)no2)cc1
4. COC(=O)c1ccccc1Sc1ncnc2onc(C)c12
5. COc1ccc(OC)c(C2CC(c3c(-c4ccccc4)c4cc(Cl)ccc4[nH]c3=O)=NN2S(C)(=O)=O)c1 (stereo unspecified)

99.6
104
101
101
100
